- test description: Inhibition of HIV1 RNase H
- Parameters: species or system Human immunodeficiency virus 1
pIC50: −log10 of the molar value.
quantity kind: pIC50

INSERT INTO measurements (smiles_code, quantity_kind, numeric_value) VALUES
  ('O=C1Cc2ccc([N+](=O)[O-])cc2C(=O)N1O', 'pIC50', 4.32),
  ('O=C(Nc1ccc2c(c1)C(=O)N(O)C(=O)C2)c1ccccc1', 'pIC50', 5.24),
  ('O=C1Cc2ccc(O)cc2C(=O)N1O', 'pIC50', 4.43),
  ('O=C1Cc2ccc(-c3ccc(O)cc3)cc2C(=O)N1O', 'pIC50', 5.14),
  ('O=C1Cc2ccc(Cl)cc2C(=O)N1O', 'pIC50', 4.54);

a: O=C1Cc2ccc(I)cc2C(=O)N1O
b: O=C(Nc1ccc2c(c1)C(=O)N(O)C(=O)C2)c1cccc([N+](=O)[O-])c1
Which record would sort first by descending pIC50, a or b ? Output the label that corresponds to your choice.
b
(b: 4.97, a: 4.24)

1: O=C1Cc2ccc(-c3ccc(O)c(O)c3)cc2C(=O)N1O
2: CC(=O)Nc1ccc2c(c1)C(=O)N(O)C(=O)C2
Smaller pIC50 value? Options are 1 and 2 Output the label that corresponds to your choice.
2
